# experimental_system: PKN2 (human)
# assay_explanation: radiometric filter-binding kinase assay
# particulars: compound 0.01 µM
Field: residual activity. Provide a value for each of the molecules that follow.
Value expressed in %; do not type the unit.

Query: Recorded residual activity for O=C(Nc1nc2cc(C(F)(F)F)cc(NC3CC3)n2n1)c1cccnc1 , please?
Result: 77

Query: Recorded residual activity for CNc1nc(-c2ccc3c(N)n[nH]c3c2)cc(N2C[C@@H](C(=O)NC3CCCCC3)CC[C@H]2C)n1 , please?
Result: 90

Query: Recorded residual activity for C/C(=C1/C(=O)Nc2ccc(NC(N)=O)cc21)c1ccc[nH]1 , please?
Result: 61

Query: Recorded residual activity for COc1cc(O)c2c(c1)[C@H]1OC1C[C@H](O)[C@H](O)C(=O)/C=C\C[C@H](C)OC2=O (stereo not given in full) , please?
Result: 93

Query: Recorded residual activity for CNC(=O)C1[C@H]2O[C@@](C)([C@@H]1N)n1c3ccccc3c3c4c(c5c6ccccc6n2c5c31)C(=O)NC4 (stereo not given in full) , please?
Result: 21
